Source: the NIST ThermoML archive (doi:10.1016/j.jct.2017.03.004)

Experiment: activity coefficient (dimensionless); of the first substance listed, at infinite dilution; xn = mol fraction of the nth substance listed
Conditions: 308.15 K; 101.33 kPa; Liquid; Chromatography; x1 = 0
Cut-off 300 on activity coefficient: below means YES, at or above means NO.

>>> answer_label("C#CCCCC [1-hexyne] + N#C[N-]C#N.OCCC[n+]1ccccc1")
"YES"
>>> answer_label("C=CCCCC [hex-1-ene] + N#C[N-]C#N.OCCC[n+]1ccccc1")
"YES"
>>> answer_label("C=CCCC [1-pentene] + N#C[N-]C#N.OCCC[n+]1ccccc1")
"YES"
>>> answer_label("C#CCCC [1-pentyne] + N#C[N-]C#N.OCCC[n+]1ccccc1")
"YES"
>>> answer_label("C=CCCCCCCCC [1-decene] + N#C[N-]C#N.OCCC[n+]1ccccc1")
"NO"
>>> answer_label("CCCCCCCC [octane] + N#C[N-]C#N.OCCC[n+]1ccccc1")
"NO"
>>> answer_label("C1CCCCC1 [cyclohexane] + N#C[N-]C#N.OCCC[n+]1ccccc1")
"YES"
>>> answer_label("C#CCCCCC [1-heptyne] + N#C[N-]C#N.OCCC[n+]1ccccc1")
"YES"
>>> answer_label("CCCCCCCCCC [decane] + N#C[N-]C#N.OCCC[n+]1ccccc1")
"NO"
>>> answer_label("C1=CCCCC1 [cyclohexene] + N#C[N-]C#N.OCCC[n+]1ccccc1")
"YES"
>>> answer_label("CC(C)CC(C)(C)C [2,2,4-trimethylpentane] + N#C[N-]C#N.OCCC[n+]1ccccc1")
"NO"
>>> answer_label("C1CCCCCCC1 [cyclooctane] + N#C[N-]C#N.OCCC[n+]1ccccc1")
"YES"
>>> answer_label("CCCCCCCCC [nonane] + N#C[N-]C#N.OCCC[n+]1ccccc1")
"NO"
>>> answer_label("C=CCCCCC [1-heptene] + N#C[N-]C#N.OCCC[n+]1ccccc1")
"YES"
>>> answer_label("CCCCCC [hexane] + N#C[N-]C#N.OCCC[n+]1ccccc1")
"NO"
>>> answer_label("C#CCCCCCC [1-octyne] + N#C[N-]C#N.OCCC[n+]1ccccc1")
"YES"
>>> answer_label("C1CCCCCC1 [cycloheptane] + N#C[N-]C#N.OCCC[n+]1ccccc1")
"YES"
>>> answer_label("C=CCCCCCC [oct-1-ene] + N#C[N-]C#N.OCCC[n+]1ccccc1")
"NO"
>>> answer_label("CCCCCCC [heptane] + N#C[N-]C#N.OCCC[n+]1ccccc1")
"NO"
>>> answer_label("C1CCCC1 [cyclopentane] + N#C[N-]C#N.OCCC[n+]1ccccc1")
"YES"
>>> answer_label("CC1CCCCC1 [methylcyclohexane] + N#C[N-]C#N.OCCC[n+]1ccccc1")
"YES"
